Test system: NCI-H522
experiment.notes: NCI tumour cell line growth inhibition, 48 h
Active and inactive are the calls of the source. Rule as the data show it: active = GI50 up to about 1.1 µM and inactive = higher.
# output must be one of active, inactive

Consider the following illustrative entries.
Nc1ccc(-c2nc3cc(F)ccc3s2)cc1Br	inactive
CCOC(=O)c1ncn2c1[nH]c(=S)c1ccccc12	inactive
CCOC(=O)c1nnsc1NC(=O)Nc1ccc(Cl)cc1	inactive

Here's the next entry for you.
Prompt: Which result was noted for this compound in the test: CN1C(=O)C23CC4=CC=CC(O)C4N2C(=O)C1(CO)SS3 (centres undefined)
Response: active

====

# GI50 measurements, system: HCT-15
Write the value in µM as a bare number.

CC(=O)Oc1c(N2CCCCC2)c(C(=O)c2ccccc2)c(O)c2ccn(N(C)C)c12	18

Prompt: Give recorded GI50 with HCT-15 for the following compound: `CCOC(=O)NC(Nc1ccc(S(=O)(=O)Nc2ccc(OC)nn2)cc1)(C(F)(F)F)C(F)(F)F`
Response: 49.1
